# max response per record follows
tested on: CRL-7250; assay: Cytotoxic Profiling of Annotated Libraries Using Quantitative High-Throughput Screening (AID 1296008); settings: Five cell lines viability, CellTiter-Glo ATP luminescence, 48-72 h; active compounds read low; note: % is set by controls: 0 for no effect and ±100 for the full control effect; nearly all actives have a fitted effect of over 60% in size
Results filed as inconclusive are left out.
Answer format: numeric, % implied, no suffix.

- Molecule: "CC1(C)OC(=O)CC(O)C2(C)C1CC(=O)C1(C)C2C(O)CC2(C)C(c3ccoc3)OC(=O)C3OC321 (stereo not drawn)"
  max response (%): -14.5
- Molecule: "CC(C)c1c(NC(=O)Nc2ccc(Cl)cc2)c(=O)n(-c2ccccc2)n1C"
  max response (%): -6
- Molecule: "C[C@@H]1O[C@@H](O[C@@H]2[C@@H](O)[C@H](O[C@@H]3[C@@H](O)[C@@H](O)[C@H](O[C@H]4[C@H](OC(=O)[C@]56CCC(C)(C)C[C@H]5C5=CCC7[C@@]8(C)C[C@H](O)[C@H](O[C@@H]9O[C@H](C(=O)O)[C@@H](O)[C@H](O)[C@H]9O)[C@@](C)(CO)C8[C@H](O)C[C@@]7(C)[C@]5(C)C[C@H]6O)O[C@@H](CO)[C@@H]4O)O[C@H]3C)OC[C@H]2O)[C@H](O)[C@H](O)[C@H]1O (stereo partly drawn)"
  max response (%): 0.0733

Problem: Field request: max response | item: CC(CCc1ccc(O)cc1)O[C@@H]1O[C@H](CO[C@@H]2OC(CO)[C@H](O)[C@H]2O)[C@@H](O)[C@H](O)[C@H]1O (stereo partly drawn)
Result: -0.0719

Problem: What about this molecule? `CCNC(=O)OC1CCN(c2nncc3cc(OC)c(OC)cc23)CC1`
Result: -1.25

src = PubChem BioAssay (NCATS)
